Source: PubChem BioAssay (NCI)

- Tested on: NCI-H322M lung
- Assay notes: NCI-60 one-dose screen, 48 h (100 = growth as untreated, 0 = no growth, -100 = all killed)
- Cond: 10 µM unless noted
Compounds without any hit were thinned out: in the full panel of roughly 83,000, 20% have a hit.
Recorded metric: growth (%)

Molecule	Recorded metric	Value units	Value observed
COc1cc2nnn3c4ncccc4c(N=O)c3c2cc1OC	growth	%	78.6
CCCCCCCCCCCCCCCCCCOc1ccccc1N	growth	%	81.7
CCOC(=O)N1CCN(CCCCl)CC1	growth	%	101
CCN(CC)CCCC(C)Nc1c2c(nc3ccc(OC)cc13)CCCC2 (stereo unspecified)	growth	%	90.6
O=C1/C(=C\c2cn(Cc3ccccc3)c3ccc(Br)cc23)c2ccccc2N1c1c(Cl)cccc1Cl	growth	%	96.8
O=C(O)C(/C=C/c1ccco1)=N\Nc1nc(-c2ccc(Cl)cc2)cs1	growth	%	68.5
O=C(Nc1nc(-c2ccccc2Cl)cs1)c1cc(-c2ccccc2)nc2ccc(Cl)cc12	growth	%	93.8
COc1ccccc1/C=C1\COc2ccc(-c3ccccc3)cc2C1=O	growth	%	80
COc1cnccc1-c1nc2ccc3[nH]ncc3c2c2c1CCCC2	growth	%	67.1
COC(=O)Nc1ccc(NC(=O)OC)cc1	growth	%	100
CC(C)Cc1ccc(C(C)C(=O)NCc2c[nH]c3ccc(Cl)cc23)cc1 (stereo unspecified)	growth	%	99.7
Nc1ncc(C#Cc2cncc(NC(=O)c3cccc(C(F)(F)F)c3)c2)c2cccnc12	growth	%	81
Cc1cc(NC(=O)c2cnc(N3CCN(CCOCCOCCOCCOCCC(=O)N[C@H](C(=O)N4C[C@H](O)C[C@H]4C(=O)N[C@@H](C)c4ccc(-c5scnc5C)cc4)C(C)(C)C)CC3)cn2)c2ncccc2c1	growth	%	35.6
COc1cc2nc(Cc3ccc(C)cc3)[nH]c(=O)c2cc1OC	growth	%	236
CCCCCCCCCCCCC1CCC/C=C\CCC(=O)O1 (stereo unspecified)	growth	%	117
[O-][n+]1ccccc1CCN(O)CCc1cccc[n+]1[O-]	growth	%	96.5
Cn1c2c(Cl)c(Cl)ccc2c2cc(N)[nH]c(=O)c21	growth	%	103
C[C@H]1[C@H](C)CC[C@]2(CO)CC[C@]3(C)C(=CC[C@@H]4[C@@]5(C)Cc6c([nH]c7ccccc67)C(C)(C)[C@@H]5CC[C@]43C)[C@H]12	growth	%	72.3
COc1cc(C2CC(c3cccc(Nc4ccncc4)c3)=NN2C(C)=O)cc(OC)c1OC (stereo unspecified)	growth	%	102
CCN1C(=O)N(CC)C2C1NN=c1s/c(=C3\C(=O)Nc4ccccc43)c(=O)n12 (stereo unspecified)	growth	%	43.5
CNC(=O)NCC1OC(n2cnc3c(NC(=O)Nc4ccccc4)ncnc32)C(O[Si](C)(C)C(C)(C)C)C1O[Si](C)(C)C(C)(C)C (stereo unspecified)	growth	%	87.3

###

- Test system: U251 CNS
- Assay notes: NCI-60 one-dose screen, 48 h
- Cond: 10 µM unless noted
This is part of a sample that, as a whole, favours compounds with a hit. Of some 83,000 tested, about 20% had one in any assay. Active and inactive are the calls of the source. The calls were made as follows: active = growth percent below 10; inactive = the rest.
Classes used: active, inactive

                                    molecule  discrete_label
 0  COc1cc(/C=C/C(=O)c2ccc(Nc3ncnc4ccccc34)cc2)cc(OC)c1        inactive
 1  C[C@H]1[C@H](C)CC[C@]2(CO)CC[C@]3(C)C(=CC[C@@H]4[C@@]5(C)Cc6c([nH]c7ccccc67)C(C)(C)[C@@H]5CC[C@]43C)[C@H]12        inactive
 2  CCCCCN1C=C/C(=C\C(=O)N(C)c2ccc(Br)cc2)c2ccccc21        inactive
 3  C=C1C(=O)O[C@H]2[C@H]1CC/C(COC(=O)NCCc1c[nH]c3ccc(Cl)cc13)=C\CC[C@@]1(C)O[C@@H]21          active
 4  COc1ccc(C2=C(c3ccccc3)c3ccc(OC(C)=O)cc3OC2(C)C)cc1        inactive
 5  CCCCCCCCCCCCC1CCC/C=C\CCC(=O)O1 (configuration not stated)        inactive
 6  CCOc1ccc(/C=N/Nc2cc(C)nc3ccc(Cl)cc23)cc1          active
 7  COc1ccc(-c2c[nH]c(C(=O)O)c2-c2cc(OC)c3c(c2OC)OCO3)cc1        inactive
 8  C=C(C)[C@@H]1CC[C@]2(CO)CC[C@]3(C)[C@H](CC[C@@H]4[C@@]5(C)CCCNC(C)(C)[C@@H]5CC[C@]43C)[C@@H]12          active
 9  S=c1[nH]cccc1-c1nnc2n1Nc1nc3ccc(Cl)cc3cc1CS2        inactive
10  COc1ccccc1C(C[N+](=O)[O-])c1c(-c2ccccc2)[nH]c2cc(C)ccc12 (configuration not stated)        inactive
11               Fc1ccccc1CSc1ncnc2nc[nH]c12        inactive
12  COc1ccc(C(=O)c2cc3c(N)c(C(=O)Nc4cccc(Cl)c4C)sc3nc2C)cc1        inactive
13  CCn1cc(C2NC(=O)c3ccccc3N2)c2cccc(C)c21 (configuration not stated)          active
14  COc1cccc(/C=C2\COc3ccc(-c4ccccc4)cc3C2=O)c1          active
15  COc1cc2nc(-c3ccc(C(F)(F)F)cc3)cc(OCCN3CCCC3)c2cc1OC        inactive
16  CC1CCN(C(=O)OCc2nc3nc(Cl)nc(N4CCOCC4)c3[nH]2)CC1          active
